test: absorption maximum in methylene chloride; assay type: physicochemical
measurement type: λmax [nm] (CH2 Cl2) (nm)
Numbers only; they are read as nm.

Query :: Quick one: λmax [nm] (CH2 Cl2) for CCCCC(CC)COc1ccc(N=Nc2ccc(N=Nc3ccc(N=Nc4ccc(OCc5ccccc5)cc4CC)cc3)cc2)c2ccccc12 (stereo not shown) ?
Result :: 445

---

Assay: solubility in liquid crystal ZLI 2452 (saturated solution, comparison of absorbances)
Format: physicochemical
Details: room temperature, in ZLI 2452
Description: The solubility was determined as follows: 50 mg of the dye was stirred at room temperature into 1 ml of liquid crystal for 1 week, the saturated solution was centrifuged off the residue, and the solubility was determined by comparing the absorbences.
measurement type: Solubility L [%] (at RT) (%)
Field: numeric (%). Do not append units.

# example entries with known answers
Query :: So what does the record say about Solubility L [%] (at RT) for `CCCCCCCCCCCCNc1ccc(N=Nc2ccc(N=Nc3ccc(N=Nc4ccc(OCCCCCCCC)cc4CC)cc3)cc2)c2ccccc12` ?
Result :: 2.0

Query :: Solubility L [%] (at RT) lookup needed for CCCCC(CC)COc1ccc(N=Nc2ccc(N=Nc3ccc(N=Nc4ccc(OCc5ccccc5)cc4CC)c(OC)c3)cc2)c2ccccc12 (stereo not drawn) , thanks.
Result :: 5.5

Turning now to a further record.
Query :: Tell me the measured Solubility L [%] (at RT) of `CCCCCCCCOc1ccc(N=Nc2ccc(N=Nc3ccc(N=Nc4ccc(OCc5ccc(CCCCC)cc5)cc4CC)cc3)cc2)c(C)c1` , please.
Result :: 5.3

---

experiment: order parameter S in liquid crystal ZLI 2452 (dichroic ratio by polarized absorbance); type: physicochemical; conditions: room temperature, in ZLI 2452
measurement type: Order parameter S (at RT)
// keep it numeric: no unit symbol after the value

Query :: What measured Order parameter S (at RT) goes with CCCCCCCCCCCCNc1ccc(N=Nc2ccc(N=Nc3ccc(N=Nc4ccc(OCCCCCCCC)cc4CC)cc3)cc2)c2ccccc12 [Example 15] ?
Result :: 0.81

Query :: What value of Order parameter S (at RT) has been reported for the following compound? CCCCC(CC)COc1ccc(N=Nc2ccc(N=Nc3ccc(N=Nc4ccc(OCc5ccccc5)cc4CC)cc3)cc2)c2ccccc12 (stereo not shown) [Example 10]
Result :: 0.81

Query :: Using the record for CCCCCCCCOc1ccc(N=Nc2ccc(N=Nc3ccc(N=Nc4ccc(OCc5ccc(OCCCCC)cc5)cc4CC)cc3)cc2)c(CC)c1 [Example 5] , report its Order parameter S (at RT).
Result :: 0.79

Query :: Recorded Order parameter S (at RT) for CCCCC(CC)COc1ccc(N=Nc2ccc(N=Nc3ccc(N=Nc4ccc(OCc5ccccc5)cc4CC)c4ccccc34)cc2)c2ccccc12 (stereo not shown) [Example 20] , please?
Result :: 0.80

Query :: Could you tell me which Order parameter S (at RT) is on file for CCCCC(CC)COc1ccc(N=Nc2ccc(N=Nc3ccc(N=Nc4ccc(OCc5ccccc5)cc4C)cc3)cc2)c(CC)c1 (stereo not shown) [Example 1] ?
Result :: 0.815

Query :: Return reported Order parameter S (at RT); argument: CCCCCCCCCCCCNc1ccc(N=Nc2ccc(N=Nc3ccc(N=Nc4ccc(OCC(CC)CCCC)cc4CC)cc3)cc2)c2ccccc12 (stereo not shown) [Example 16]
Result :: 0.80

Query :: Consider the compound CCCCC(CC)COc1ccc(N=Nc2ccc(N=Nc3ccc(N=Nc4ccc(OCc5ccccc5)c5ccccc45)cc3)c3ccccc23)c(CC)c1 (stereo not shown) [Example 19] and give its measured Order parameter S (at RT).
Result :: 0.79

Query :: I'd like to know its Order parameter S (at RT). The compound in question is CCCCCCCCOc1ccc(N=Nc2ccc(N=Nc3ccc(N=Nc4ccc(OCc5ccc(CCCCC)cc5)c5ccccc45)cc3)cc2)c(CC)c1 [Example 12]
Result :: 0.79

Next:
Query :: Given CCCCC(CC)COc1ccc(N=Nc2ccc(N=Nc3ccc(N=Nc4ccc(OCc5ccccc5)cc4CC)c(OC)c3)cc2)c2ccccc12 (stereo not shown) [Example 21] , state its recorded Order parameter S (at RT).
Result :: 0.79

Query :: Which Order parameter S (at RT) reading was recorded for the compound CCCCCCCCOc1ccc(N=Nc2ccc(N=Nc3ccc(N=Nc4ccc(OCc5ccccc5)cc4CC)cc3)cc2)c(CC)c1 [Example 4] ?
Result :: 0.79

Query :: // query Order parameter S (at RT) value for entry CCCCCc1ccc(COc2ccc(N=Nc3ccc(N=Nc4ccc(N=Nc5ccc(OCC(CC)CCCC)cc5CC)cc4)cc3)c3ccccc23)cc1 (stereo not shown) [Example 14]
Result :: 0.81

Query :: Requested field: Order parameter S (at RT). Item: CCCCCOc1ccc(COc2ccc(N=Nc3ccc(N=Nc4ccc(N=Nc5ccc(OCC(CC)CCCC)cc5CC)cc4)cc3)c3ccccc23)cc1 (stereo not shown) [Example 13]
Result :: 0.79

Query :: Need Order parameter S (at RT), item CCCCCCCCOc1ccc(N=Nc2ccc(N=Nc3ccc(N=Nc4ccc(OCc5ccc(OCCCCC)cc5)c5ccccc45)cc3)cc2)c(CC)c1 [Example 11]
Result :: 0.79

---

experiment: absorption maximum in methylene chloride; assay type: physicochemical
Listed here: items and their measured λmax [nm] (CH2 Cl2).
Express your answer in nm, writing the number without its unit.

Query :: Which λmax [nm] (CH2 Cl2) is listed for CCCCC(CC)COc1ccc(N=Nc2ccc(N=Nc3ccc(N=Nc4ccc(OCc5ccccc5)c5ccccc45)cc3)cc2)c(CC)c1 (stereo not drawn) ?
Result :: 443

Others:
Query :: Suppose we examine the compound CCCCC(CC)COc1ccc(N=Nc2ccc(N=Nc3ccc(N=Nc4ccc(OCc5ccccc5)cc4C)cc3)cc2)c(CC)c1 (stereo not drawn) ; what λmax [nm] (CH2 Cl2) value has been reported?
Result :: 417

Query :: If you can, please state the reported λmax [nm] (CH2 Cl2) value of `CCCCCCCCOc1ccc(N=Nc2ccc(N=Nc3ccc(N=Nc4ccc(OCc5ccc(CCCCC)cc5)cc4CC)cc3)cc2)c(C)c1` .
Result :: 418

---

test: absorption maximum in methylene chloride; assay type: physicochemical
measurement type: λmax [nm] (CH2 Cl2) (nm)
Express it in nm; write the number only.

Query :: Which λmax [nm] (CH2 Cl2) value is on record for CCCCC(CC)COc1ccc(N=Nc2ccc(N=Nc3ccc(N=Nc4ccc(OCc5ccccc5)cc4CC)c4ccccc34)cc2)c2ccccc12 (stereo not drawn) ?
Result :: 489

Query :: Given `CCCCCCCCOc1ccc(N=Nc2ccc(N=Nc3ccc(N=Nc4ccc(OCc5ccccc5)cc4CC)cc3)cc2)c(CC)c1` , state its recorded λmax [nm] (CH2 Cl2).
Result :: 419

Query :: # get_value(readout='λmax [nm] (CH2 Cl2)', item= `CCCCCCCCOc1ccc(N=Nc2ccc(N=Nc3ccc(N=Nc4ccc(OCc5ccc(OCCCCC)cc5)cc4CC)cc3)cc2)c(CC)c1` )
Result :: 418

Query :: Given the compound CCCCCCCCCCCCNc1ccc(N=Nc2ccc(N=Nc3ccc(N=Nc4ccc(OCC(CC)CCCC)cc4CC)cc3)cc2)c2ccccc12 (stereo not drawn) , what is its reported λmax [nm] (CH2 Cl2)?
Result :: 533

Query :: Could you share which λmax [nm] (CH2 Cl2) value was measured for CCCCCc1ccc(COc2ccc(N=Nc3ccc(N=Nc4ccc(N=Nc5ccc(OCC(CC)CCCC)cc5CC)cc4)cc3)c3ccccc23)cc1 (stereo not drawn) ?
Result :: 443

Attention now shifts to the item below.
Query :: Look up λmax [nm] (CH2 Cl2) for this compound: `CCCCCCCCOc1ccc(N=Nc2ccc(N=Nc3ccc(N=Nc4ccc(OCc5ccc(OCCCCC)cc5)c5ccccc45)cc3)cc2)c(CC)c1`
Result :: 437
